Values from paper PMC5540273

Reported %Inh values follow for various molecules
system: MYO3A; conditions: concentration: 1 μM,replicates: in singlicate; n = 1;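 note: KINOMEscan kinase panel screen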
Write the value in % as a bare number.

Cc1n[nH]c2ccc(-c3cc(OC[C@@H](N)Cc4ccccc4)cnc3-c3ccoc3)cc12.O=C(O)C(F)(F)F.O=C(O)C(F)(F)F; 80
Cl.Cl.Nc1nc(-c2ccc3c(N)n[nH]c3c2)cc(N2CCCC(NC(=O)c3ccccc3)C2)n1 (stereo not drawn); 22
Cc1ccc2c(-c3ccncc3)c(-c3ccc(F)cc3)nn2c1.Cl; 0
CCn1c(-c2nonc2N)nc2c(C#CC(C)(C)O)nc(OCCN)cc21.Cl.Cl; 0
NC(=O)c1cc(-c2ccccc2)cc2c(C3CCNCC3)c[nH]c12; 0
O=C(NCCNc1ccnc(NCc2ccc(F)cc2)n1)c1cc2ccccc2s1; 0
O=C(NCCCN1CCOC1=O)c1cnc(NCc2cc(Cl)ccc2Cl)nc1NC1CCCC1; 0
Cl.Cl.NC[C@H](Cc1ccc(C(F)(F)F)cc1)NC(=O)c1cc(Br)c(-c2ccnc3[nH]ccc23)s1; 2

# context switch: different molecule, same %Inh
Inquiry: Would you kindly share the measured %Inh for CNC(=O)c1ccccc1Sc1ccc2c(/C=C/c3ccccn3)n[nH]c2c1 ?
Reply text: 0

* * *

tested on: TSSK1B; conditions: concentration: 1 μM,replicates: in singlicate; n = 1
Endpoint Name: %Inh (%)
Note: unit % is implicit; provide only the numeric part.

Cc1cc2cn[nH]c2cc1-c1cccc2c(N)c(C(N)=O)nnc12; 0
Cl.Cl.NC[C@H](CC1CCCCC1)NC(=O)c1cc(Br)c(-c2ccnc3[nH]ccc23)s1 [GSK1581427]; 58
CCN(CC)CCOc1ccc(Nc2ncc3cc(-c4c(Cl)cccc4Cl)c(=O)n(C)c3n2)cc1 [SB-601273]; 56

Inquiry: Quick check: %Inh on TSSK1B, item COc1ccc(C[C@@H](CN)NC(=O)c2cc(Br)c(-c3ccnc4[nH]ccc34)s2)cc1.Cl.Cl [GSK1389063] ?
Reply text: 28

Inquiry: Queued: C[C@H]1Oc2cc(cnc2N)-c2c(nn(C)c2C#N)CN(C)C(=O)c2ccc(F)cc21
Reply text: 58

Inquiry: Repeat for the following compound: CNC(=O)c1ccccc1Sc1ccc2c(/C=C/c3ccccn3)n[nH]c2c1
Reply text: 0

Inquiry: Same lookup for Nc1nc(Nc2ccccc2)cc(-c2ccc3c(N)n[nH]c3c2)n1 [GSK2225749] , please.
Reply text: 2

* * *

tested on: PYK2; construct: gene PTK2B; details: concentration: 1 μM,replicates: in singlicate; n = 1
Simple rule here: %Inh less than 20% is Yes, otherwise No.

CCN(CC)CCCCNc1ncc2cc(-c3c(Cl)cccc3Cl)c(NC(=O)NC(C)(C)C)nc2n1; Yes
Cc1n[nH]c2ccc(-c3cc(OC[C@@H](N)Cc4ccccc4)cnc3-c3ccoc3)cc12.O=C(O)C(F)(F)F.O=C(O)C(F)(F)F; No
Cc1ccc2c(-c3ccncc3)c(-c3ccc(F)cc3)nn2c1.Cl; Yes
C[C@H]1Oc2cc(cnc2N)-c2c(nn(C)c2C#N)CN(C)C(=O)c2ccc(F)cc21; No
CCN(CC)CCOc1ccc(Nc2ncc3cc(-c4c(Cl)cccc4Cl)c(=O)n(C)c3n2)cc1; No
CCn1c(-c2nonc2N)nc2c(C#CC(C)(C)O)nc(OCCN)cc21.Cl.Cl; Yes
COc1ccc(C[C@@H](CN)NC(=O)c2cc(Br)c(-c3ccnc4[nH]ccc34)s2)cc1.Cl.Cl; No
O=C(NCCNc1ccnc(NCc2ccc(F)cc2)n1)c1cc2ccccc2s1; Yes

Inquiry: Does O=C(NCCCN1CCOC1=O)c1cnc(NCc2cc(Cl)ccc2Cl)nc1NC1CCCC1 have %Inh strictly under 20%?
Reply text: Yes

Inquiry: Then CN(C)CCOc1ccc(-c2cc(-c3c[nH]nc3-c3ccccn3)ccn2)cc1 ?
Reply text: Yes

Inquiry: Would you kindly repeat that for CN(C)CC(O)COc1ccc(Nc2nccc(-c3cnn4nc(N5CCOCC5)ccc34)n2)cc1 (stereo not drawn) ?
Reply text: No

* * *

test system: DAPK3; settings: concentration: 1 μM,replicates: in singlicate; n = 1
Endpoint Name: %Inh (%)
Quick note: give the figure in %, leave out the unit.

# count of solved cases: 5
CN(C)CC(O)COc1ccc(Nc2nccc(-c3cnn4nc(N5CCOCC5)ccc34)n2)cc1 (stereo not drawn); 68
C=CC(=O)Nc1cc2c(Nc3ccc(F)c(Cl)c3)ncnc2cc1OCCCN1CCOCC1; 0
CC(C)Nc1cc(-c2ccc3c(N)n[nH]c3c2)nc(N)n1; 51
Cl.Cl.NC[C@H](CC1CCCCC1)NC(=O)c1cc(Br)c(-c2ccnc3[nH]ccc23)s1; 19
O=C(NCCCN1CCOC1=O)c1cnc(NCc2cc(Cl)ccc2Cl)nc1NC1CCCC1; 12

Proceeding to the next molecule to report its %Inh.
Inquiry: Fill blank: measured %Inh of the molecule Cc1cc(C(=O)Nc2ccc(Oc3ccc4nc(NC(=O)C5CC5)cn4n3)cc2)nn1-c1ccccc1 is ____.
Reply text: 10

* * *

system: RAF1; conditions: concentration: 1 μM,replicates: in singlicate; n = 1
Reported %Inh values follow for various compounds
The response must be a number in % with no trailing unit.

Example compounds with recorded %Inh:
CN(C)CC(O)COc1ccc(Nc2nccc(-c3cnn4nc(N5CCOCC5)ccc34)n2)cc1 (centres unmarked) [GW767488]; 6
CNC(=O)c1ccccc1Sc1ccc2c(/C=C/c3ccccn3)n[nH]c2c1; 3
COc1ccc(C[C@@H](CN)NC(=O)c2cc(Br)c(-c3ccnc4[nH]ccc34)s2)cc1.Cl.Cl [GSK1389063]; 5
Nc1nc(Nc2ccccc2)cc(-c2ccc3c(N)n[nH]c3c2)n1 [GSK2225749]; 0
Cc1cc(C(=O)Nc2ccc(Oc3ccc4nc(NC(=O)C5CC5)cn4n3)cc2)nn1-c1ccccc1; 75

Inquiry: Name the reported %Inh value associated with the compound CCn1c(-c2nonc2N)nc2c(C#CC(C)(C)O)nc(OCCN)cc21.Cl.Cl [GSK902056]
Reply text: 0

Inquiry: How about this compound: O=C(NCCCN1CCOC1=O)c1cnc(NCc2cc(Cl)ccc2Cl)nc1NC1CCCC1
Reply text: 7

Inquiry: Next entry: CN(C)CCOc1ccc(-c2cc(-c3c[nH]nc3-c3ccccn3)ccn2)cc1 [GW835314]
Reply text: 28

* * *

system: CDKL2; conditions: concentration: 1 μM,replicates: in singlicate; n = 1
Rule: %Inh of 20% or more gives 1; anything lower gives 0.

Reference set (5 entries):
Cc1cc2cn[nH]c2cc1-c1cccc2c(N)c(C(N)=O)nnc12; 1
CC(C)N1C(=O)Cc2cc(Nc3ncc(C(F)(F)F)c(NCc4cccc(S(C)(=O)=O)c4)n3)ccc21; 0
Cl.Cl.NC[C@H](CC1CCCCC1)NC(=O)c1cc(Br)c(-c2ccnc3[nH]ccc23)s1; 0
C[C@@H]1CCN(C(=O)CC#N)C[C@@H]1N(C)c1ncnc2[nH]ccc12; 0
Cc1occc1-c1nc(N)c(OC[C@@H](N)Cc2c[nH]c3ccccc23)cc1-c1cc2c(C)n[nH]c2cn1; 0

Inquiry: Quick check, %Inh >= 20%? COc1ccc(C[C@@H](CN)NC(=O)c2cc(Br)c(-c3ccnc4[nH]ccc34)s2)cc1.Cl.Cl
Reply text: 1

Inquiry: Consider next the compound Cc1cc(C(=O)Nc2ccc(Oc3ccc4nc(NC(=O)C5CC5)cn4n3)cc2)nn1-c1ccccc1 in the same way.
Reply text: 1

Inquiry: Again, but for O=C(NCCNc1ccnc(NCc2ccc(F)cc2)n1)c1cc2ccccc2s1
Reply text: 1

Inquiry: Try the compound CCn1c(-c2nonc2N)nc2c(C#CC(C)(C)O)nc(OCCN)cc21.Cl.Cl
Reply text: 1

Inquiry: Consider next the compound Nc1nc(Nc2ccccc2)cc(-c2ccc3c(N)n[nH]c3c2)n1 in the same way.
Reply text: 0

Inquiry: Input O=C(NCCCN1CCOC1=O)c1cnc(NCc2cc(Cl)ccc2Cl)nc1NC1CCCC1
Reply text: 0

Inquiry: Similarly, CCN(CC)CCOc1ccc(Nc2ncc3cc(-c4c(Cl)cccc4Cl)c(=O)n(C)c3n2)cc1 ?
Reply text: 1

Inquiry: Cool, now CC(C)Nc1cc(-c2ccc3c(N)n[nH]c3c2)nc(N)n1
Reply text: 0

Inquiry: Repeat with CN(C)CC(O)COc1ccc(Nc2nccc(-c3cnn4nc(N5CCOCC5)ccc34)n2)cc1 (stereo not drawn)
Reply text: 1

* * *

%Inh values by entry
tested on: RSK4(Kin.Dom.2-C-terminal); construct: gene RPS6KA6; conditions: concentration: 1 μM,replicates: in singlicate; n = 1
API: value field is a number in %; no unit string.

Cl.Cl.NC[C@H](CC1CCCCC1)NC(=O)c1cc(Br)c(-c2ccnc3[nH]ccc23)s1 [GSK1581427]; 5
Cc1cc2cn[nH]c2cc1-c1cccc2c(N)c(C(N)=O)nnc12; 0
CN(C)CC(O)COc1ccc(Nc2nccc(-c3cnn4nc(N5CCOCC5)ccc34)n2)cc1 (stereo not shown) [GW767488]; 0
Cc1n[nH]c2ccc(-c3cc(OC[C@@H](N)Cc4ccccc4)cnc3-c3ccoc3)cc12.O=C(O)C(F)(F)F.O=C(O)C(F)(F)F [GSK507358]; 13
C[C@@H]1CCN(C(=O)CC#N)C[C@@H]1N(C)c1ncnc2[nH]ccc12; 100

Inquiry: Given the compound CCn1c(-c2nonc2N)nc2c(C#CC(C)(C)O)nc(OCCN)cc21.Cl.Cl [GSK902056] , what is its reported %Inh?
Reply text: 0

Inquiry: Item: CC(C)Nc1cc(-c2ccc3c(N)n[nH]c3c2)nc(N)n1 [GSK2221681]
Reply text: 12

Inquiry: Now try CC(C)N1C(=O)Cc2cc(Nc3ncc(C(F)(F)F)c(NCc4cccc(S(C)(=O)=O)c4)n3)ccc21 .
Reply text: 22
